Taken from patent US20230382889A1.

Target: KIF18a-microtubule complex (Homo sapiens (Human), UniProt Q8NI77)
Sequence (Q8NI77 1-374, one chain of several): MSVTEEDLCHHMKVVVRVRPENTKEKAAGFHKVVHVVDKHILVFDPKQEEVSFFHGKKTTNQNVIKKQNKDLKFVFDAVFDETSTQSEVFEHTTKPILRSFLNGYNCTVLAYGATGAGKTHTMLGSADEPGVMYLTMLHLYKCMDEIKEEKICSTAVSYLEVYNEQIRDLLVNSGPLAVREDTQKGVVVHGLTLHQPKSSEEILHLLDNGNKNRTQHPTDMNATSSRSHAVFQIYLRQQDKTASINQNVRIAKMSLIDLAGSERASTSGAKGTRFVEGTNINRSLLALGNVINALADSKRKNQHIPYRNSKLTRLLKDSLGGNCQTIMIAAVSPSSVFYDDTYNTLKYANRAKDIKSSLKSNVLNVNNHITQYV
Experiment: Binding kinetics to KIF18a-microtubule complex (global progress curve analysis)
Settings: ln(2)/koff
Experimental: Compound binding kinetics parameters (kon and koff) were determined by the method of global progress curve analysis (GPCA). […] ADP product levels were determined by the Promega® ADP-Glo assay.
measurement_type: disc. t1/2 (dissociation half-life ln(2)/koff) (h)

Answered cases to consult:
[[record]]
structure_notation = "O=S(=O)(CCO)Nc1ccc(-n2cc(-c3csc(N4CCC(F)(F)CC4)n3)nn2)c(N2CCC3(CC2)CC3)c1"
observed = 9.9

[[record]]
structure_notation = "CS(=O)(=O)Nc1ccc(-n2cc(-c3cccc(N4CCC(F)(F)CC4)n3)nn2)c(N2CCC3(CC2)CC3)c1"
observed = 43

[[record]]
structure_notation = "Cc1cc(-c2cn(-c3ccc(NS(=O)(=O)CCO)cc3N3CCCCC3)nn2)nc(N2CC(F)(F)C2)c1"
observed = 5.4

[[record]]
structure_notation = "Cc1cc(-c2cn(-c3ccc(NS(=O)(=O)CCO)cc3N3CCCCC3)nn2)nc(N2CCC(F)(F)CC2)n1"
observed = 9.4


[a] CS(=O)(=O)Nc1ccc(-c2nnc(-c3cccc(N4CCC(F)(F)CC4)n3)[nH]2)c(N2CCC3(CC2)CC3)c1
[b] CS(=O)(=O)Nc1ccc(-c2ncc(-c3cccc(N4CCC(F)(F)CC4)n3)[nH]2)c(N2CCC3(CC2)CC3)c1
[c] O=S(=O)(CCO)Nc1ccc(-n2cc(-c3cccc(N4CCC(F)(F)CC4)n3)nn2)c(N2CCC3(CC2)CC3)c1
[d] Cc1cc(-c2cn(-c3ccc(NS(=O)(=O)CCO)cc3N3CCC4(CC3)CC4)nn2)nc(N2CCC(F)(F)CC2)n1
hey, can you rank those compounds up there by disc. t1/2 (dissociation half-life ln(2)/koff)? biggest number first please # respond with the labels, arranged in the requested order
d, c, a, b
